Taken from paper PMC12136037.

Target: ~100 representative kinases (Homo sapiens, UniProt O96017)
Construct: Recombinant protein kinase domains with a concentration of 2 μM
Sequence (O96017 whole entry, the tested form may be a part): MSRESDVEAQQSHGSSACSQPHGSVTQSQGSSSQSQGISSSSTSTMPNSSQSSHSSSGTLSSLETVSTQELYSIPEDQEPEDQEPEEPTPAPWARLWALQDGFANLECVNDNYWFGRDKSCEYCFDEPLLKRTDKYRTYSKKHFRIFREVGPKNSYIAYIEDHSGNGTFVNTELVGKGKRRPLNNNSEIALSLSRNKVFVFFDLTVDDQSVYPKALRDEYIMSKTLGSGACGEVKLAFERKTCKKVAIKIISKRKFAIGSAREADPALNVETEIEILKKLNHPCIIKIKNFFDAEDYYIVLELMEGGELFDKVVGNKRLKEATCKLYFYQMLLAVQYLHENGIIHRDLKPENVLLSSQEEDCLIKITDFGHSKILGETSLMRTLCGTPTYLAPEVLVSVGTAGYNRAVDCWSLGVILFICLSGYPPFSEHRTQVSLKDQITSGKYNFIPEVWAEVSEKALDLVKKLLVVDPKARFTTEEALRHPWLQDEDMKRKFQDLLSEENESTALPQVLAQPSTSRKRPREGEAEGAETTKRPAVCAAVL
Test: DSF 100 kinase selectivity screen;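 note: compound tested at 20 µM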
Assay type: binding
Conditions: Protein CHEK2; average of three replicates
Below, each entry is listed alongside its reported dTm.
Expressed in K, but write only the number.

Below, each entry is followed by its recorded dTm result.
Cc1ccc(NC(=O)C2(C(=O)Nc3cccc(-c4c[nH]c5ncnc(N6CCOCC6)c45)c3)CC2)cc1 | 3.90
O=C(Nc1cccc(-c2c[nH]c3ncnc(N4CCOCC4)c23)c1)C1(C(=O)Nc2ccc(F)c(F)c2)CC1 | 4.07
Cc1cc(NC(=O)C2(C(=O)Nc3cccc(-c4c[nH]c5ncnc(N6CCOCC6)c45)c3)CC2)ccc1F | 5.31

Now take the following compound into account.
### Prompt Fill in: dTm of CCSc1nc(NC)c2c(-c3cccc(NC(=O)Nc4cc(C(C)(C)C)nn4-c4ccc(C)cc4)c3)c[nH]c2n1 is ___
### Response 3.19

====

Tested on: ~100 representative kinases
Assay: DSF 100 kinase selectivity screen;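 note: compound tested at 20 µM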
Type: binding
Settings: Protein BRD; average of three replicates
MEASURE_NAME: dTm (K)
Expressed in K, but write only the number.

Below, each entry is followed by its recorded dTm result.
Cc1cc(NC(=O)C2(C(=O)Nc3cccc(-c4c[nH]c5ncnc(N6CCOCC6)c45)c3)CC2)ccc1F | -0.20
COc1cc(C(=O)N2CCOCC2)c(F)cc1Nc1nc(N(C)C)c2c(Cl)c[nH]c2n1 | -0.29

### Prompt Which measured dTm belongs to O=C(Nc1cc(F)cc(Br)c1)C1(C(=O)Nc2cccc(-c3c[nH]c4ncnc(N5CCOCC5)c34)c2)CC1 , tested on ~100 representative kinases?
### Response 1.43

====

Molecular target: ~100 representative kinases (Homo sapiens)
Construct: Recombinant protein kinase domains with a concentration of 2 μM
Assay: DSF 100 kinase selectivity screen;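 note: compound tested at 20 µM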
Type: binding
Details: Protein AAK1; average of three replicates
Below, each entry is listed alongside its reported dTm.
Expressed in K, but write only the number.

Below, each entry is followed by its recorded dTm result.
CCSc1nc(NC)c2c(-c3cccc(NC(=O)Nc4cc(C(C)(C)C)nn4-c4ccc(C)cc4)c3)c[nH]c2n1 | 0.08
O=C(Nc1cccc(-c2c[nH]c3ncnc(N4CCOCC4)c23)c1)C1(C(=O)Nc2ccc(F)c(Br)c2F)CC1 | -0.08
O=C(Nc1cccc(-c2c[nH]c3ncnc(N4CCOCC4)c23)c1)C1(C(=O)Nc2ccc(F)c(Br)c2)CC1 | 3.23

### Prompt Which measured dTm belongs to Cc1ccc(C(=O)Nc2ccc(CN3CCN(C)CC3)c(C(F)(F)F)c2)cc1C#Cc1cnc2[nH]ncc2c1 [GZD-824, reference compound] , tested on ~100 representative kinases (Homo sapiens)?
### Response 5.77

### Prompt Which measured dTm belongs to COc1cc(C(=O)N2CCOCC2)c(F)cc1Nc1nc(N(C)C)c2c(Cl)c[nH]c2n1 , tested on ~100 representative kinases (Homo sapiens)?
### Response 2.52

### Prompt Which measured dTm belongs to CNC(=O)c1cc(Oc2ccc(NC(=O)Nc3cc(C(C)(C)C)nn3-c3ccc4ncccc4c3)c(F)c2)ccn1 [Rebastinib, reference compound] , tested on ~100 representative kinases (Homo sapiens)?
### Response 0.20

### Prompt Which measured dTm belongs to Cc1ccc(-n2nc(C(C)(C)C)cc2NC(=O)Nc2cccc(-c3c[nH]c4ncnc(N5CCOCC5)c34)c2)cc1 , tested on ~100 representative kinases (Homo sapiens)?
### Response 5.32

====

Target: ~100 representative kinases (Homo sapiens)
Construct: Recombinant protein kinase domains with a concentration of 2 μM
Assay: DSF 100 kinase selectivity screen;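 note: compound tested at 20 µM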
Type: binding
Conditions: Protein STK10; DSF; average of three replicates
Outcome label depends on dTm relative to 10 K: at/above gives fulfilled, below gives not fulfilled.

Solved cases (6 shown):
O=C(Nc1ccccc1)C1(C(=O)Nc2cccc(-c3c[nH]c4ncnc(N5CCOCC5)c34)c2)CC1 | fulfilled
Cc1cc(NC(=O)C2(C(=O)Nc3cccc(-c4c[nH]c5ncnc(N6CCOCC6)c45)c3)CC2)ccc1F | fulfilled
CCSc1nc(NC)c2c(-c3cccc(NC(=O)Nc4cc(C(C)(C)C)nn4-c4ccc(C)cc4)c3)c[nH]c2n1 | not fulfilled
O=C(Nc1cccc(-c2c[nH]c3ncnc(N4CCOCC4)c23)c1)C1(C(=O)Nc2ccc(F)c(Br)c2)CC1 | fulfilled
CC(=O)N1CCN(c2nc(Cl)nc3[nH]cc(-c4cccc(NC(=O)Nc5cc(C(C)(C)C)nn5-c5ccc(C)cc5)c4)c23)CC1 | fulfilled
Cc1ccc(-n2nc(C(C)(C)C)cc2NC(=O)Nc2cccc(-c3c[nH]c4nc(Cl)nc(N5CCOCC5)c34)c2)cc1 | fulfilled

### Prompt Has CNC(=O)c1cc(Oc2ccc(NC(=O)Nc3cc(C(C)(C)C)nn3-c3ccc4ncccc4c3)c(F)c2)ccn1 [Rebastinib, reference compound] a recorded dTm greater than or equal to 10 K?
### Response fulfilled

### Prompt Has COc1cc(S(C)(=O)=O)ccc1Nc1nc(N(C)C)c2c(Cl)c[nH]c2n1 a recorded dTm greater than or equal to 10 K?
### Response not fulfilled

### Prompt Has C[C@@H]1CN(c2cc(-c3n[nH]c4ccc(OC5(C)CC5)cc34)ncn2)C[C@H](C)O1 a recorded dTm greater than or equal to 10 K?
### Response not fulfilled

### Prompt Has COc1cc(C(=O)N2CCOCC2)c(F)cc1Nc1nc(N(C)C)c2c(Cl)c[nH]c2n1 a recorded dTm greater than or equal to 10 K?
### Response not fulfilled

### Prompt Has COc1ccc(NC(=O)C2(C(=O)Nc3cccc(-c4c[nH]c5ncnc(N6CCOCC6)c45)c3)CC2)cc1 a recorded dTm greater than or equal to 10 K?
### Response not fulfilled

### Prompt Has O=C(Nc1cccc(-c2c[nH]c3ncnc(N4CCOCC4)c23)c1)C1(C(=O)Nc2ccc(F)cc2F)CC1 a recorded dTm greater than or equal to 10 K?
### Response not fulfilled

### Prompt Has Cc1cc(F)ccc1NC(=O)C1(C(=O)Nc2cccc(-c3c[nH]c4ncnc(N5CCOCC5)c34)c2)CC1 a recorded dTm greater than or equal to 10 K?
### Response not fulfilled

### Prompt Has CN[C@@H]1C[C@H]2O[C@@](C)([C@@H]1OC)n1c3ccccc3c3c4c(c5c6ccccc6n2c5c31)C(=O)NC4 a recorded dTm greater than or equal to 10 K?
### Response fulfilled

### Prompt Has COc1cc(NC(=O)C2(C(=O)Nc3cccc(-c4c[nH]c5ncnc(N6CCOCC6)c45)c3)CC2)ccc1F a recorded dTm greater than or equal to 10 K?
### Response fulfilled

### Prompt Has O=C(Nc1cccc(-c2c[nH]c3ncnc(N4CCOCC4)c23)c1)c1cccn(-c2ccc(F)cc2)c1=O a recorded dTm greater than or equal to 10 K?
### Response fulfilled

====

Target: UniProt:P49759
Sequence (P49759 whole entry): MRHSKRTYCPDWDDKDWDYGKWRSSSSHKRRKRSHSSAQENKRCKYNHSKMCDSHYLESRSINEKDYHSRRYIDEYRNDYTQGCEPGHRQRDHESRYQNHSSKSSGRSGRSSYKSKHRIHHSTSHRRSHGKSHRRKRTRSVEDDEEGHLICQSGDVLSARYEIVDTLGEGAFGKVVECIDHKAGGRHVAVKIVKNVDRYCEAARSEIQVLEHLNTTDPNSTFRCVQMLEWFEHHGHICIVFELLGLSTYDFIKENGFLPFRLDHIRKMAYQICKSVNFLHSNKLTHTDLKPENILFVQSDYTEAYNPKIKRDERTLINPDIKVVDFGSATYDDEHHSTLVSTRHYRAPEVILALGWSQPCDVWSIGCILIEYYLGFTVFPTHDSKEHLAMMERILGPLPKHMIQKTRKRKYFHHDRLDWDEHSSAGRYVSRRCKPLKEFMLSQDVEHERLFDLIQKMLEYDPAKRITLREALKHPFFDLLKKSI
Assay: nanoBRET off-target validation
MEASURE_NAME: EC50
Enter the number, and then the unit.

### Prompt Fill in: EC50 of CCSc1nc(NC)c2c(-c3cccc(NC(=O)Nc4cc(C(C)(C)C)nn4-c4ccc(C)cc4)c3)c[nH]c2n1 [Compound 32] is ___
### Response 6 µM

====

Target: LRRK2^KW (Homo sapiens)
Construct: LRRK2 R1847 to E2527; His6-Z-tag (TEV cleavable) (N, cleaved yes); host or cells: Sf9 insect cells (baculovirus)
Sequence (Q5S007 1847-2527): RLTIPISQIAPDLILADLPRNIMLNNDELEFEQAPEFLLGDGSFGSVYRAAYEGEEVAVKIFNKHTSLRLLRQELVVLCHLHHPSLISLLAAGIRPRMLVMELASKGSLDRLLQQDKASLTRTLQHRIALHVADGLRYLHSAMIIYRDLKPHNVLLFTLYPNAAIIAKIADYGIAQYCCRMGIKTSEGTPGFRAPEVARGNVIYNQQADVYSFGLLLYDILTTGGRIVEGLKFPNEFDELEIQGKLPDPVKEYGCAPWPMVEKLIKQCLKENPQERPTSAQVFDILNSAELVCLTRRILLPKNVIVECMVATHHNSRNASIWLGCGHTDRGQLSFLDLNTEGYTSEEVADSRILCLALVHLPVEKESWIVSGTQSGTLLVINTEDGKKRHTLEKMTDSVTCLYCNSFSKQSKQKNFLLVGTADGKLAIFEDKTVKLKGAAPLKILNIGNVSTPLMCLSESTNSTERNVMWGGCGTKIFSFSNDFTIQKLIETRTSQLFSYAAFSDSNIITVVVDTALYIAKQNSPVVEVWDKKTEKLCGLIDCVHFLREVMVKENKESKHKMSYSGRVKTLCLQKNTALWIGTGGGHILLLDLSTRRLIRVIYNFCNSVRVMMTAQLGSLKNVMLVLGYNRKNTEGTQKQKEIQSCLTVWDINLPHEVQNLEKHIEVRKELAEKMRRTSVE
Assay: DSF thermal stabilization of LRRK2^KW
Format: binding
Conditions: DSF, LRRK2^KW, 10 μM inhibitor
MEASURE_NAME: ∆Tm (K)
Expressed in K, but write only the number.

COc1cc(S(C)(=O)=O)ccc1Nc1nc(N(C)C)c2c(-c3cccc(NC(=O)Nc4cc(C(C)(C)C)nn4-c4ccc5ncccc5c4)c3)c[nH]c2n1 [Compound 35] | 1.5
Cc1cc(F)ccc1NC(=O)C1(C(=O)Nc2cccc(-c3c[nH]c4ncnc(N5CCOCC5)c34)c2)CC1 [Compound 24] | 8.5
O=C(Nc1ccc(F)cc1)C1(C(=O)Nc2cccc(-c3c[nH]c4ncnc(N5CCOCC5)c34)c2)CCCC1 [Compound 3] | 6.0
CC(C)(C)c1cc(NC(=O)Nc2cccc(-c3c[nH]c4ncnc(N5CCOCC5)c34)c2)n(-c2ccc3ncccc3c2)n1 [Compound 28] | 20.0

### Prompt Fill in: ∆Tm (K) of CC(C)(C)c1cccc(NC(=O)C2(C(=O)Nc3cccc(-c4c[nH]c5ncnc(N6CCOCC6)c45)c3)CC2)c1 [Compound 22] is ___
### Response 12.0

### Prompt Fill in: ∆Tm (K) of CC(=O)N1CCN(c2nc(Cl)nc3[nH]cc(-c4cccc(NC(=O)Nc5cc(C(C)(C)C)nn5-c5ccc(C)cc5)c4)c23)CC1 [Compound 31] is ___
### Response 18.0

### Prompt Fill in: ∆Tm (K) of COc1cc(C(=O)N2CCOCC2)c(F)cc1Nc1nc(N(C)C)c2c(-c3cccc(NC(=O)Nc4cc(C(C)(C)C)nn4-c4ccc(C)cc4)c3)c[nH]c2n1 [Compound 34] is ___
### Response 0.0

### Prompt Fill in: ∆Tm (K) of Cc1ccc(NC(=O)C2(C(=O)Nc3ccc(F)cc3)CC2)cc1-c1c[nH]c2ncnc(N3CCOCC3)c12 [Compound 5] is ___
### Response 1.8

### Prompt Fill in: ∆Tm (K) of O=C(Nc1cc(F)cc(Br)c1)C1(C(=O)Nc2cccc(-c3c[nH]c4ncnc(N5CCOCC5)c34)c2)CC1 [Compound 27] is ___
### Response 10.2

### Prompt Fill in: ∆Tm (K) of COc1cc2c(Oc3ccc(NC(=O)C4(C(=O)Nc5ccc(F)cc5)CC4)cc3F)ccnc2cc1OCCCN1CCOCC1 [Foretinib, reference compound] is ___
### Response 12.1
